Entry source: patent US8217042B2

- System: MDA-MB468
- assay.procedure: XTT assay, anti-proliferative action, MDA-MB468
- Type: cell-based
- condition.details: MDA-MB468 cells, 45 h incubation
pEC50: −log10 of the molar value.
measurement.name: pEC50

>>> print(df.to_string())
                            smiles_notation  value_measured
0  CCNC(=O)Nc1ccc2ncc(-c3ccc(OC(=O)OCCOC)cc3)nc2n1            4.81

====

Measured pIC50 values are reported for all entries that follow.
- Tested on: Jnk1 + Jnk2
- assay.procedure: Cell-free kinase assay (ALPHA technology), Jnk1 + Jnk2
- Type: biochemical
- condition.details: at 10 μM or 100 μM* ATP, recombinant human kinases
pIC50: −log10 of the molar value.
measurement.name: pIC50

In [3]: df
Out[3]:
                            smiles_notation  value_measured
0  CCNC(=O)Nc1ccc2ncc(-c3ccc(OC(=O)/C=C/c4ccccc4)cc3)nc2n1          < 4.00
1  CCNC(=O)Nc1ccc2ncc(-c3ccc(NC(=O)OCCOC)cc3)nc2n1          < 4.50
2  CCNC(=O)Nc1ccc2ncc(-c3ccc(OC(=O)OC)cc3)nc2n1          < 4.00
3  CCNC(=O)Nc1ccc2ncc(Nc3ccc(S(C)(=O)=O)cc3)nc2n1          < 4.50
4  CCNC(=O)Nc1ccc2ncc(Nc3ccc(CN4CCCCC4)cc3)nc2n1          < 4.50
5  CCNC(=O)Nc1ccc2ncc(-c3ccc(OC(=O)OCC(C)C)cc3)nc2n1          < 4.00
6  CCNC(=O)Nc1ccc2ncc(-c3ccc(OC(=O)Oc4ccccc4)cc3)nc2n1          < 4.00
7  CCNC(=O)Nc1ccc2ncc(Nc3cccc(C(=O)NC)c3)nc2n1          < 4.50
8  CCNC(=O)Nc1ccc2ncc(-c3ccc(NC(=O)OC(C)(C)C)cc3)nc2n1          < 4.50
